Hello, the source for this data is ChEMBL document CHEMBL1140093, in case you need it.

molecular target: D(2) dopamine receptor (Homo sapiens)
Sequence (P14416 whole entry): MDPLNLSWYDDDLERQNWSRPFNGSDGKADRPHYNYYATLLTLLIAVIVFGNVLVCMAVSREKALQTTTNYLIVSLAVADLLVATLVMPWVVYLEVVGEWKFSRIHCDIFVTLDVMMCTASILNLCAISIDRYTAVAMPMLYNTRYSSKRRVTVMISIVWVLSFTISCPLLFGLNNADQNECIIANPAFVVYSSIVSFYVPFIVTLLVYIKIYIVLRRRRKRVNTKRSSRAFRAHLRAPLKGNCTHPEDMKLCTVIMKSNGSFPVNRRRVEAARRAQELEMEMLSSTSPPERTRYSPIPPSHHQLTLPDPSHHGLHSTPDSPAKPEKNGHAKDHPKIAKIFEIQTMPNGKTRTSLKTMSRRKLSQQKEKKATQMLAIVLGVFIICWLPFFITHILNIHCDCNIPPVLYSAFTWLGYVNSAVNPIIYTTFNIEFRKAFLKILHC
pKi: −log10 of the molar value.
Label label 0 if pKi falls below 7; label label 1 in every other case.

Known results for compounds:
compound=O[C@@]1(c2ccc(Cl)cc2)C[C@H]2CC[C@@H](C1)N2Cc1coc2ccc(F)cc12 discrete_label="label 1"
compound=O[C@]1(c2ccc(Cl)c(Cl)c2)C[C@H]2CC[C@@H](C1)N2Cc1coc2ccccc12 discrete_label="label 1"
compound="COc1ccc2occ(CN3[C@@H]4CC[C@H]3C[C@](O)(c3ccc(Cl)cc3)C4)c2c1 (single isomer, unassigned)" discrete_label="label 1"
compound=O[C@]1(c2ccc(Cl)cc2)C[C@H]2CC[C@@H](C1)N2Cc1c[nH]c2ccccc12 discrete_label="label 1"
compound=O[C@@]1(c2ccc(Cl)cc2)C[C@H]2CC[C@@H](C1)N2Cc1n[nH]c2ccccc12 discrete_label="label 0"
compound=O[C@@]1(c2cccc(Cl)c2Cl)C[C@H]2CC[C@@H](C1)N2Cc1c[nH]c2ccccc12 discrete_label="label 0"
compound=O[C@@]1(c2ccc3ccccc3c2)C[C@H]2CC[C@@H](C1)N2Cc1c[nH]c2ccccc12 discrete_label="label 0"
compound=O[C@@]1(c2cccc(Cl)c2Cl)C[C@H]2CC[C@@H](C1)N2Cc1csc2ccccc12 discrete_label="label 0"

Task: Reported pKi at or above 7? O[C@@]1(c2ccc(Cl)cc2)C[C@H]2CC[C@@H](C1)N2Cc1coc2ccc3ccccc3c12
Result: label 1

Task: Reported pKi at or above 7? COc1ccc2[nH]cc(CN3[C@@H]4CC[C@H]3C[C@](O)(c3ccc(SC)cc3)C4)c2c1
Result: label 0

Task: Reported pKi at or above 7? CSc1ccc([C@]2(O)C[C@H]3CC[C@@H](C2)N3Cc2c[nH]c3ccccc23)cc1
Result: label 0

Task: Reported pKi at or above 7? O[C@@]1(c2ccc(Cl)c(Cl)c2)C[C@H]2CC[C@@H](C1)N2Cc1coc2ccc(F)cc12
Result: label 1

Task: Reported pKi at or above 7? O[C@@]1(c2ccc(Br)cc2)C[C@H]2CC[C@@H](C1)N2Cc1coc2ccccc12
Result: label 1

Task: Reported pKi at or above 7? O[C@@]1(c2ccc(Cl)cc2)C[C@H]2CC[C@@H](C1)N2Cc1csc2ccccc12
Result: label 1

Task: Reported pKi at or above 7? COc1ccccc1[C@]1(O)C[C@H]2CC[C@@H](C1)N2Cc1c[nH]c2ccccc12
Result: label 0

Task: Reported pKi at or above 7? O[C@@]1(c2ccc(Cl)cc2)C[C@H]2CC[C@@H](C1)N2Cc1coc2c1ccc1ccccc12
Result: label 1

Task: Reported pKi at or above 7? O[C@@]1(c2ccc(F)cc2)C[C@H]2CC[C@@H](C1)N2Cc1coc2ccccc12
Result: label 1
